- system-tested: IRAK4 (Homo sapiens)
- Construct: endogenous in cells; host or cells: OCI-LY10
- Sequence (Q9NWZ3 1-460): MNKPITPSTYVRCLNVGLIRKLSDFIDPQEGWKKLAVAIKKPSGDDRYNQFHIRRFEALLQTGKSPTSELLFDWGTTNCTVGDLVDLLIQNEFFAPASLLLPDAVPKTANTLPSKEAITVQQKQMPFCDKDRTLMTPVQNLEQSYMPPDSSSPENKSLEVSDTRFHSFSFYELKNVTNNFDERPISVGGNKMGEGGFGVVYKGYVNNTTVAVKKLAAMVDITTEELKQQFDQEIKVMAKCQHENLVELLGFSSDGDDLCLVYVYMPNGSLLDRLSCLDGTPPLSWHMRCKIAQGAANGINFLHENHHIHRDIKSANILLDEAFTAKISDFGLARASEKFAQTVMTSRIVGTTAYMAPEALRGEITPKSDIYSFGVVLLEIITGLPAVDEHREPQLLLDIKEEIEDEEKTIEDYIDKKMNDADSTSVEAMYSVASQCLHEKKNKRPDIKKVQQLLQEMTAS
- test-method-notes: IRAK4 MSD Degradation in OCI-LY10
- Format: cell-based
- measurement-conditions: OCI-LY10 cells, 24 hrs incubation, read-out: IRAK4 degradation in OCI-LY10 at 24 hrs: DC50
result-type: DC50

Just so you know, measured DC50 for O=C1CCC(N2C(=O)c3cccc(NCCC4CC5(CCN(C[C@H]6CC[C@H](n7cc8cc(NC(=O)c9cccc(C(F)(F)F)n9)c(OC9CC9)cc8n7)CC6)CC5)C4)c3C2=O)C(=O)N1 (some centres unmarked) came out at < 50 nM

Just so you know, measured DC50 for COc1cc2nn([C@H]3CC[C@H](CN4CCC5(CC4)CC(CNc4cccc6c4C(=O)N([C@@H]4CCC(=O)NC4=O)C6=O)C5)CC3)cc2cc1NC(=O)c1cccc(C(F)(F)F)n1 came out at 50 to 100 nM

Just so you know, measured DC50 for COc1cc2nn([C@H]3CC[C@H](CN(C)[C@H]4CC[C@H](CNc5cccc6c5C(=O)N(C5CCC(=O)NC5=O)C6=O)CC4)CC3)cc2cc1NC(=O)c1cccc(C)n1 (some centres unmarked) came out at 50 to 100 nM

Just so you know, measured DC50 for COc1cc2nn([C@H]3CC[C@H](CN4CCC5(CC4)CC(CCNc4cccc6c4C(=O)N(C4CCC(=O)NC4=O)C6=O)C5)CC3)cc2cc1NC(=O)[C@@H]1CCCCN1 (some centres unmarked) came out at 500 to 1000 nM

Just so you know, measured DC50 for COc1c(NC(=O)c2cccc(C(C)(C)F)n2)cc2cn([C@H]3CC[C@H](CN4CC5(CC(CCNc6cccc7c6C(=O)N(C6CCC(=O)NC6=O)C7=O)C5)C4)CC3)nc2c1C (some centres unmarked) came out at 50 to 100 nM

Just so you know, measured DC50 for COc1cc2nc([C@H]3CC[C@H](CN4CC5(CC(CCNc6cccc7c6C(=O)N(C6CCC(=O)NC6=O)C7=O)C5)C4)CC3)oc2cc1NC(=O)c1cccc(C(C)(F)F)n1 (some centres unmarked) came out at 50 to 100 nM

Just so you know, measured DC50 for COc1cc2nn([C@H]3CC[C@H](CN(C)CCCO[C@H]4C[C@@H](Nc5cccc6c5C(=O)N(C5CCC(=O)NC5=O)C6=O)C4)CC3)cc2cc1NC(=O)c1cccc(C(F)(F)F)n1 (some centres unmarked) came out at 100 to 500 nM

Just so you know, measured DC50 for CC(C)(O)COc1cc2nn([C@H]3CC[C@H](CN4CCC5(CC4)CC(CNc4cccc6c4C(=O)N(C4CCC(=O)NC4=O)C6=O)C5)CC3)cc2cc1NC(=O)c1cccc(C(C)(C)F)n1 (some centres unmarked) came out at 50 to 100 nM

Just so you know, measured DC50 for CC(C)(O)c1cc2nc(N3CCC(CN4CCC5(CC4)CC(CCNc4cccc6c4C(=O)N(C4CCC(=O)NC4=O)C6=O)C5)CC3)oc2cc1NC(=O)c1cccc(C(F)(F)F)n1 (centres unmarked) came out at 500 to 1000 nM

Just so you know, measured DC50 for CC(C)Oc1cc2nn([C@H]3CC[C@H](CN4CCC5(CC4)CC(Nc4cccc6c4C(=O)N(C4CCC(=O)NC4=O)C6=O)C5)CC3)cc2cc1NC(=O)c1cccc(C(F)(F)F)n1 (some centres unmarked) came out at 50 to 100 nM

Just so you know, measured DC50 for COc1cc2nn([C@H]3CC[C@H](CN4CCC5(CC4)CC(CCNc4cccc6c4C(=O)N(C4CCC(=O)NC4=O)C6=O)C5)CC3)cc2cc1NC(=O)c1cccc(C(C)(F)F)n1 (some centres unmarked) [I-63] came out at 50 to 100 nM

----------
For each record, write down the corresponding DC50.
- system-tested: IRAK4 (Homo sapiens, UniProt Q9NWZ3)
- Construct: endogenous in cells; host or cells: OCI-LY10
- test-method-notes: IRAK4 MSD Degradation in OCI-LY10
- Format: cell-based
- measurement-conditions: OCI-LY10 cells, 24 hrs incubation, read-out: IRAK4 degradation in OCI-LY10 at 24 hrs: DC50

Just so you know, measured DC50 for COc1cc2nn([C@H]3CC[C@H](CN4CCC5(CC4)CC(CNc4cccc6c4C(=O)N(C4CCC(=O)NC4=O)C6=O)C5)CC3)cc2cc1NC(=O)c1ccccn1 (stereo partly shown) came out at 0.05 to 0.1 µM

Just so you know, measured DC50 for CC(C)(O)c1cc2nn([C@H]3CC[C@H](CN4CCC5(CC4)CC(Nc4cccc6c4C(=O)N(C4CCC(=O)NC4=O)C6=O)C5)CC3)cc2cc1NC(=O)c1cccc(S(F)(F)(F)(F)F)c1 (stereo partly shown) came out at 0.05 to 0.1 µM

Just so you know, measured DC50 for CC(C)(O)c1cc2nc([C@H]3CC[C@H](CN4CCC5(CC4)CC(CCNc4cccc6c4C(=O)N(C4CCC(=O)NC4=O)C6=O)C5)CC3)oc2cc1NC(=O)c1cccc(C(F)(F)F)n1 (stereo partly shown) came out at 0.5 to 1 µM

Just so you know, measured DC50 for COc1cc2nn([C@H]3CC[C@H](CN4CCO[C@@H](CCNc5cccc6c5C(=O)N(C5CCC(=O)NC5=O)C6=O)C4)CC3)cc2cc1NC(=O)c1cccc(C(F)(F)F)n1 (stereo partly shown) came out at 0.05 to 0.1 µM

Just so you know, measured DC50 for COc1cc2nn([C@H]3CC[C@H](CN4CCC5(CC4)CC(CCNc4cccc6c4C(=O)N(C4CCC(=O)NC4=O)C6=O)C5)CC3)cc2cc1NC(=O)c1nc(C(F)(F)F)cs1 (stereo partly shown) came out at 0.1 to 0.5 µM

Just so you know, measured DC50 for O=C1CCC(N2C(=O)c3cccc(NCCC4CC5(CCN(C[C@H]6CC[C@H](n7cc8cc(NC(=O)c9cccc(C(F)(F)F)n9)c(OC(F)(F)F)cc8n7)CC6)CC5)C4)c3C2=O)C(=O)N1 (stereo partly shown) came out at 0.05 to 0.1 µM

Just so you know, measured DC50 for CC(C)(O)COc1cc2nn([C@H]3CC[C@H](CN4CCC5(CC4)CC(CNc4cccc6c4C(=O)N(C4CCC(=O)NC4=O)C6=O)C5)CC3)cc2cc1NC(=O)c1cccc(C(F)(F)F)n1 (stereo partly shown) came out at 0.05 to 0.1 µM

Just so you know, measured DC50 for CC(F)(F)c1cccc(C(=O)Nc2cc3cn([C@H]4CC[C@H](CN5CC6(CC(CCNc7cccc8c7C(=O)N(C7CCC(=O)NC7=O)C8=O)C6)C5)CC4)nc3cc2OC2CC2)n1 (stereo partly shown) came out at 0.05 to 0.1 µM

Just so you know, measured DC50 for CN(CCCn1cc2cc(NC(=O)c3cccc(C(F)(F)F)n3)c(C(C)(C)O)cc2n1)C1CCC2(CC1)CC(Nc1cccc3c1C(=O)N(C1CCC(=O)NC1=O)C3=O)C2 (stereo not shown) came out at 0.1 to 0.5 µM

Just so you know, measured DC50 for CN[C@@H](C)C(=O)N[C@H](C(=O)N1Cc2cc(OCCCC3CC4(CCN(C[C@H]5CC[C@H](n6cc7cc(NC(=O)c8cccc(C(F)(F)F)n8)c(OC)cc7n6)CC5)CC4)C3)ccc2C[C@H]1C(=O)N[C@@H]1CCCc2ccccc21)C(C)(C)C came out at 0.5 to 1 µM

----------
- Test system: SUDHL-2 cells
- test-method-notes: CTG Cell Viability Assay - SUDHL-2
- Assay type: cell-based
- measurement-conditions: Homo sapiens, SU-DHL-2, 96 h, read-out: CTG Cell Viability Assay - SUDHL-2: IC50 (μM)
- Description: Compound-mediated viability effect on OCI-LY10 or SUDHL-2 was quantitatively determined using the CellTiter-Glo® Luminescent Cell Viability Assay kit from Promega (Catalog number G7570) following manufacturer's recommended procedures. […] The data was then analyzed by software Prism 7.0 from GraphPad and the dose response curves were fit using a three-parameter logistic equation to calculate IC50.
result-type: IC50

Just so you know, measured IC50 for COc1cc2nn([C@H]3CC[C@H](CN4CCC5(CC4)CC(CCNc4cccc6c4C(=O)N(C4CCC(=O)NC4=O)C6=O)C5)CC3)cc2cc1NC(=O)c1cccc(C(C)(F)F)n1 (stereo partly shown) came out at 0.1 to 0.5 µM
